biological target: 5-hydroxytryptamine receptor 1D (Sus scrofa); assay: Binding activity against 5-hydroxytryptamine 1D receptor from pig caudate membrane using [3H]5-HT as radioligand
Sequence (P79400 whole entry): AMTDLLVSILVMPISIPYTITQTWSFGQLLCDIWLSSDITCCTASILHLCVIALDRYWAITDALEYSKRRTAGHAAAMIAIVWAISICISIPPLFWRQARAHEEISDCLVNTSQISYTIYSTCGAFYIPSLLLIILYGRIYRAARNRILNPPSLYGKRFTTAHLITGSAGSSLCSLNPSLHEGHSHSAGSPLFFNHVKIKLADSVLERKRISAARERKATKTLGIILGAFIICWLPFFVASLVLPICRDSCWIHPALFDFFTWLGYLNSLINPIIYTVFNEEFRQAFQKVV
Reported pIC50 values follow for various compounds
Recall that pIC50 is obtained by taking minus log10 of the concentration measured in molar.

CN(C)CCc1c[nH]c2ccc(Cn3nccn3)cc12 = 6.60

Consider the additional compound presented here.
q: Query (compound): `CN(C)CCc1c[nH]c2ccc(Cc3ncn(C)n3)cc12` ; field requested: pIC50
a: 6.70

###

test: Partition coefficient (logD7.4); conditions: octanol/water, pH 7.4
observable: logD

CN(C)CCc1c[nH]c2ccc(Cn3ncnn3)cc12 = -0.34
CN(C)CCc1c[nH]c2ccc(Cn3nccn3)cc12 = -0.2
CN(C)CCc1c[nH]c2ccc(Cn3cncn3)cc12 = -0.74
Cc1nccn1-c1ccc2[nH]cc(CCN(C)C)c2c1 = -0.13
CN(C)CCc1c[nH]c2ccc(Cn3ccnc3)cc12 = -0.53
CN(C)CCc1c[nH]c2ccc(Cc3ncnn3C)cc12 = -0.75

Consider the additional molecule presented here.
q: Query (molecule): `CN(C)CCc1c[nH]c2ccc(Cc3ncn(C)n3)cc12` ; field requested: logD
a: -1.01

###

Reported IC50 values follow for various molecules
target: 5-HT2C receptors (Sus scrofa); experiment: Binding activity against 5-hydroxytryptamine 2C receptor from pig cortex membrane using [3H]mesulergine as radioligand.
Give the number; µM is assumed, so skip it.

q: Query (molecule): `CN(C)CCc1c[nH]c2ccc(Cn3ccnc3)cc12` ; field requested: IC50
a: 3.16

q: Query (molecule): `CN(C)CCc1c[nH]c2ccc(Cc3nc(N)no3)cc12` ; field requested: IC50
a: 0.398

q: Query (molecule): `CCn1nnc(Cc2ccc3[nH]cc(CCN(C)C)c3c2)n1` ; field requested: IC50
a: 1.58

q: Query (molecule): `CN(C)CCc1c[nH]c2ccc(-n3cncn3)cc12` ; field requested: IC50
a: 10

q: Query (molecule): `CN(C)CCc1c[nH]c2ccc(Cn3ncnn3)cc12` ; field requested: IC50
a: 2

q: Query (molecule): `CN(C)CCc1c[nH]c2ccc(Cc3nnn(C)n3)cc12` ; field requested: IC50
a: 2.51

q: Query (molecule): `Cc1nccn1Cc1ccc2[nH]cc(CCN(C)C)c2c1` ; field requested: IC50
a: 7.94

q: Query (molecule): `CN(C)CCc1c[nH]c2ccc(Cn3cnnn3)cc12` ; field requested: IC50
a: 5.01

q: Query (molecule): CN(C)CCc1c[nH]c2ccc(Cn3cncn3)cc12 [RIZATRIPTAN] ; field requested: IC50
a: 6.31

q: Query (molecule): `CN(C)CCc1c[nH]c2ccc(Cc3ncnn3C)cc12` ; field requested: IC50
a: 3.98

###

target: Serotonin 3 (5-HT3) receptor (Rattus norvegicus, UniProt P35563+Q9JJ16); assay: Inhibition of [3H]-Q-ICS 205-930 binding to rat cortex homogenate 5-hydroxytryptamine 3 receptor
Sequence (P35563 whole entry): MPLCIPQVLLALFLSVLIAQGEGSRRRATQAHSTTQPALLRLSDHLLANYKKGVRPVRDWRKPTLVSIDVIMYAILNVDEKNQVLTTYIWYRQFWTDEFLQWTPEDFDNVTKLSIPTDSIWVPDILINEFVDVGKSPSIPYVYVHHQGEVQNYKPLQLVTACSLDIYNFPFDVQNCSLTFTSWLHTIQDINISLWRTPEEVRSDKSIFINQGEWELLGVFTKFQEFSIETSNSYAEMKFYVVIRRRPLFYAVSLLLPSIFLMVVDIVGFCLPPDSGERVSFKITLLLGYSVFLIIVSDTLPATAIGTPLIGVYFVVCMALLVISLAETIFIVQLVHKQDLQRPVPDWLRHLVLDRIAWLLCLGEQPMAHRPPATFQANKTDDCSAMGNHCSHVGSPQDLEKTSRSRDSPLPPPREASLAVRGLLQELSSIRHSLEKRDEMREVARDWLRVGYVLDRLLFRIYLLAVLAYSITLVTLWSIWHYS
Sequence (Q9JJ16 whole entry): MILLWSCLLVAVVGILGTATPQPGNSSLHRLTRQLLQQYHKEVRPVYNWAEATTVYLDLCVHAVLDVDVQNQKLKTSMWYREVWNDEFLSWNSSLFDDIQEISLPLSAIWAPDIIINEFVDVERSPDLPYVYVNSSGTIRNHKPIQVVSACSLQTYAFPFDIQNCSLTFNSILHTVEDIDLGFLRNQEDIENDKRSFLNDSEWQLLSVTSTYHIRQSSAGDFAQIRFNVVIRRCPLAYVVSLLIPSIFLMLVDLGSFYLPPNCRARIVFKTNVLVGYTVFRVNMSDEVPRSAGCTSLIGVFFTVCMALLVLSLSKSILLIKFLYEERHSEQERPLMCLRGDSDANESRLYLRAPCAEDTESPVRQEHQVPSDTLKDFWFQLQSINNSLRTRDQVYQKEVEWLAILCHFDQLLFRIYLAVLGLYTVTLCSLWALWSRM
Reported IC50 values follow for various compounds

q: Identify the measured IC50 of `Cc1nccn1Cc1ccc2[nH]cc(CCN(C)C)c2c1` for Serotonin 3 (5-HT3) receptor (Rattus norvegicus, UniProt P35563+Q9JJ16).
a: 1.58 µM

q: Identify the measured IC50 of `CN(C)CCc1c[nH]c2ccc(-n3cncn3)cc12` for Serotonin 3 (5-HT3) receptor (Rattus norvegicus, UniProt P35563+Q9JJ16).
a: 10 µM

q: Identify the measured IC50 of `CN(C)CCc1c[nH]c2ccc(Cc3ncnn3C)cc12` for Serotonin 3 (5-HT3) receptor (Rattus norvegicus, UniProt P35563+Q9JJ16).
a: 10 µM

q: Identify the measured IC50 of `CCn1nnnc1Cc1ccc2[nH]cc(CCN(C)C)c2c1` for Serotonin 3 (5-HT3) receptor (Rattus norvegicus, UniProt P35563+Q9JJ16).
a: > 10 µM
